Taken from ChEMBL document CHEMBL1127305.

- Organism: Cavia porcellus
- testDescription: Tested for agonist potency by conducting tests on electrically stimulated guinea pig ileal longitudinal muscle preparation
- Assay type: functional, organism-based
- conditionDescription: Muscle tissue
pIC50: −log10 of the molar value.
Lab note: compare pIC50 against 8. Equal or greater, write class 1. Smaller, write class 0.

CN(C(=O)Cc1ccc(Cl)c(Cl)c1)[C@H](CN1CCCC1)c1cccc(N=C=S)c1
class 0
CN(C(=O)Cc1ccc(Cl)c(Cl)c1)C(CN1CCCC1)c1ccc(N)cc1 (stereo not drawn)
class 1
CN(C(=O)Cc1ccc(Cl)c(Cl)c1)[C@H](CN1CCCC1)c1ccc(N=C=S)cc1
class 0
CN(C(=O)Cc1ccc(Cl)c(Cl)c1)[C@H](CN1CCCC1)c1cccc(N)c1
class 1
CN(C(=O)Cc1ccc(Cl)c(Cl)c1)[C@@H](CN1CCCC1)c1ccccc1
class 0
CN(C(=O)Cc1ccc(Cl)c(Cl)c1)[C@H](CN1CCCC1)c1ccccc1 [ICI-199,441]
class 1

pIC50 >= 8 for `COC(=O)/C=C/C(=O)Nc1cccc([C@@H](CN2CCCC2)N(C)C(=O)Cc2ccc(Cl)c(Cl)c2)c1` ?
class 0
